FYI, the data here is from ChEMBL document CHEMBL1157539.

System: Plasmodium falciparum
Test: GSK_TCMDC: Inhibition of Plasmodium falciparum Dd2 in whole red blood cells, using parasite LDH activity as an index of growth. Test compounds present at 2uM
Type: functional
Parameter threshold = 60%. Response is Condition met when Inhibition meets or exceeds it, else Condition not met.

COMPOUND	CLASSIFICATION
CO/C(=C\C=C\c1cc2cc(Cl)c(Cl)cc2[nH]1)C(=O)NC1CCN(CCOc2ccccc2)CC1	Condition met
COc1ccc(CCn2c(=N)c(C(=O)NCc3cccnc3)cc3c(=O)n4ccccc4nc32)cc1	Condition not met
CCCc1ccc(NC(=O)c2ccc(CN3CCCN(Cc4cccc(O)c4)CC3)cc2)cc1.O=C(O)C(F)(F)F	Condition met
Cc1ccc(-c2ccc3c(c2)C=C(C(=O)NCC2CCN(CC4CCN(C(=O)/C=C/c5ccc(Cl)c(Cl)c5)CC4)CC2)CCC3)cc1	Condition met
COc1ccc(CNCC(C)(C)c2nc(-c3ccc(Cl)c(O)c3)c(-c3ccncc3)[nH]2)cc1.Cl	Condition met
CC(C)c1ccc(CN2CCCCC(NC(=O)c3cc(-c4cccc(F)c4)cs3)C2)cc1.O=C(O)C(F)(F)F (stereo not drawn)	Condition not met
Cc1nc2ccccc2c(O)c1[N+](=O)[O-]	Condition not met
CN1CCN(c2ccnc3ccc(NC(=O)Nc4ccc(-c5ccncc5)c(C(F)(F)F)c4)cc23)CC1	Condition met

* * *

Test system: Plasmodium falciparum
Experiment: GSK_TCMDC: Inhibition of Plasmodium falciparum 3D7 in whole red blood cells, using parasite LDH activity as an index of growth. Test compounds present at 2uM
Type: functional
Overview of reported Inhibition across a group of compounds:
MEASUREMENT_LABEL: Inhibition

COMPOUND	MEASUREMENT_LABEL	VALUE_REPORTED
Cl.Cn1ncc2c3c(CCN4CCC(NCc5cc6c(cn5)OCC6)CC4)c(Cl)cnc3ccc21	Inhibition	94%
COc1ccc2nccc([C@@H](O)CN3CCC(NCc4cc5ccccc5nn4)CC3)c2c1.O=C(O)C(=O)O	Inhibition	94%
CC(C)n1ncc2c(C(=O)N3CCCC4CCCCC43)cc(C3CC3)nc21 (stereo not given)	Inhibition	99%
CC(C)(Oc1c(C2CCN(CCCCNC(=O)c3ccc(-c4ccc(Cl)cc4)cc3)CC2)ccc2c1CCCC2)C(N)=O	Inhibition	93%
CN(Cc1cccc(O)c1)C1CCN(c2cc(NC(=O)c3ccc(F)cc3)ccn2)CC1.O=C(O)C(F)(F)F	Inhibition	94%

* * *

Overview of reported Inhibition across a group of compounds:
Tested on: Plasmodium falciparum
Test: GSK_TCMDC: Inhibition of Plasmodium falciparum 3D7 in whole red blood cells, using parasite LDH activity as an index of growth. Test compounds present at 2uM
Assay type: functional
MEASUREMENT_LABEL: Inhibition (%)

COMPOUND	TEST_SYSTEM	UNIT_NAME	VALUE_REPORTED
Cc1ccc(S(=O)(=O)O)cc1.N=C(NCCc1c[nH]c2ccccc12)NCc1ccccc1Cl	Plasmodium falciparum	%	83
Cl.Nc1ccc(-c2cc(Cl)cc(Cl)c2)cc1-c1cc2ccccc2[nH]1	Plasmodium falciparum	%	100
O=C(Nc1ccccc1-c1ccccc1)C1CCCN1C(=O)Nc1ccc(Cl)cc1 (centres undefined)	Plasmodium falciparum	%	96
CCN(CC)CCn1c(=N)n(CC(O)c2ccc(Cl)c(Cl)c2)c2ccccc21.Cl (centres undefined)	Plasmodium falciparum	%	99
O=C(NC1CCN(c2ccnc3cc(Cl)ccc23)C1)c1ccc(F)cc1.O=C(O)C(F)(F)F (centres undefined)	Plasmodium falciparum	%	94
Cc1ccc2[nH]c(-c3cc(-c4ccc(OCc5ccccc5)cc4)cnc3N)nc2c1.O=C(O)C(F)(F)F	Plasmodium falciparum	%	91
O=C(O)C(F)(F)F.O=C1OC2(CN1CC1CCN(Cc3ccc(O)cc3Cl)C1)c1ccccc1-c1ccccc12 (centres undefined)	Plasmodium falciparum	%	84
COc1ccc2nc(C)cc(Nc3ccc(Cl)cc3)c2c1	Plasmodium falciparum	%	89
O=C(Nc1ccc(OC(F)(F)F)cc1)NC1CCN(c2ccnc3ccccc23)CC1.O=C(O)C(F)(F)F	Plasmodium falciparum	%	100

* * *

Tested on: Plasmodium falciparum
Assay: GSK_TCMDC: Inhibition of Plasmodium falciparum Dd2 in whole red blood cells, using parasite LDH activity as an index of growth. Test compounds present at 2uM
Format: functional
MEASUREMENT_LABEL: Inhibition (%)

MOLECULE	MEASUREMENT_LABEL	UNIT_NAME	VALUE_REPORTED
CN1CCC(C(=O)Nc2cccc(-c3ccc(-c4nc5cc(F)ccc5[nH]4)cc3)c2)CC1	Inhibition	%	51
CNC(=O)c1cncc(/C=C/c2ccccc2S(N)(=O)=O)c1	Inhibition	%	77
NC1CCN(Cc2cccc(-c3ccc(-c4nc5ccccc5[nH]4)s3)c2)C1.O=C(O)C(F)(F)F (stereo not drawn)	Inhibition	%	62
CCNc1cc(C(=O)N[C@@H](Cc2ccccc2)[C@H](O)CNCc2cccc(-n3ccnc3)c2)cc(N2CCCC2=O)c1.O=C(O)C(F)(F)F	Inhibition	%	96
Cn1nccc1C(=O)NCCNCc1cccc(-c2ccc(-c3nc4ccccc4[nH]3)cc2)c1.O=C(O)C(F)(F)F	Inhibition	%	98
O=C(COc1ccc(C(=O)c2ccccc2)cc1)Nc1nccs1	Inhibition	%	18
N#Cc1ccc2c(c1)CN(C1CCC(NC(=O)/C=C/c3cc(C(F)(F)F)cc(C(F)(F)F)c3)CC1)CCC2 (stereo not drawn)	Inhibition	%	4
Cc1ccccc1CN1CCCN(Cc2ccc(C(=O)Nc3ccc(C(C)(C)C)cc3)cc2)CC1.O=C(O)C(F)(F)F	Inhibition	%	5

* * *

System: Plasmodium falciparum
Assay: GSK_TCMDC: Inhibition of Plasmodium falciparum 3D7 in whole red blood cells, using parasite LDH activity as an index of growth. Test compounds present at 2uM
Format: functional
Overview of reported Inhibition across a group of molecules:

MOLECULE	TEST_SYSTEM	UNIT_NAME	Inhibition
CCCCCCCN1CC[C@@H](CCCc2ccnc3ccc(OCCN4CCOCC4)cc23)[C@@H](CC)C1.O=C(O)C(=O)O	Plasmodium falciparum	%	89
Br.CC1(C)NC(N)=NC(=N)N1OCCCSc1ccccc1	Plasmodium falciparum	%	93
Cc1nc2ccccc2c(=O)n1/N=C/c1ccccc1[N+](=O)[O-]	Plasmodium falciparum	%	94
CCCCCn1c(Sc2ccc(C#N)c([N+](=O)[O-])c2)nnc1-c1ccc(OC)cc1	Plasmodium falciparum	%	88
COc1cccc(C(O)CNc2ccnc(Nc3cccc(-c4csc(C)n4)c3)n2)c1 (centres undefined)	Plasmodium falciparum	%	99
O=C(c1cc2c(s1)-c1cccc(Cl)c1SC2)N1CCN(c2ccncc2)CC1	Plasmodium falciparum	%	94
CCOc1cc(C(=O)NC2CCN(Cc3ccccc3)CC2)ccc1-c1nc2cc(Cl)c(Cl)cc2[nH]1	Plasmodium falciparum	%	100
Cc1ccc(-c2cc(C(=O)Nc3ccc(S(=O)(=O)N4CCCCC4C)cc3)n[nH]2)c(O)c1 (centres undefined)	Plasmodium falciparum	%	100
CC[C@H](C)CNC(=O)c1ccnc(-c2cccc(CN3CCC(N4CCCC4)CC3)c2)c1.O=C(O)C(F)(F)F	Plasmodium falciparum	%	97

* * *

System: HepG2
Experiment: GSK_TCMDC: Percent inhibition of human HepG2 cell line. Test compounds present at 10uM.
Format: functional

COMPOUND	Inhibition
CCN(CC)CCCNC(=O)/C(=C/C=C/c1cc2cc(Cl)c(Cl)cc2[nH]1)OC.Cl	38%
O=C(N1CCN(c2ccc(C(F)(F)F)cc2[N+](=O)[O-])CC1)C(Cl)(Cl)Cl	29%
COc1ccc(C=NNc2nc3ccccc3[nH]2)cc1O	15%
CCNc1cc(C(=O)N[C@@H](Cc2ccccc2Cl)[C@H](O)CNC(C)CCCC(C)C)cc(N2CCCCS2(=O)=O)c1.Cl (stereo partly drawn)	12%
CN1CCN(c2ccnc3cc4c(cc23)N(C(=O)Nc2ccc3c(c2)CCCC3=O)CC4)CC1.Cl	5%
Cc1ccc(Nc2nc(C)cc(NC3CCN(C)CC3)n2)cc1	14%
Cc1cc2ccccc2n1CC(=O)N1CC(C(=O)N2CCCCC2)Oc2ccccc21 (stereo not drawn)	0%
CCCNc1ccc(-c2cc(C(N)=O)c3[nH]cc(C4CCN(S(=O)(=O)CC)CC4)c3c2)cn1.O=C(O)C(F)(F)F	6%
Cc1[nH]c(C)c(-c2ccc(Oc3ccc(Cl)cc3)cc2)c(=O)c1Br	12%
COc1ccc2ncc(F)c(NC(=O)C3CCC(NCc4cc5c(F)cccc5[nH]4)CC3)c2n1.Cl (stereo not drawn)	39%
Cc1cc(N(C)C)nc(Nc2ccc(NS(=O)(=O)c3ccccc3)cc2)n1	0%
N#Cc1cccc(NC(=O)Nc2cccc(-c3cccc(-c4nc5cc(F)ccc5[nH]4)c3)c2)c1	60%
N#Cc1ccc2c(c1)CN(C1CCC(NC(=O)/C=C/c3cc(C(F)(F)F)cc(C(F)(F)F)c3)CC1)CCC2 (stereo not drawn)	34%
O=S(=O)(c1c(Cl)cc(Cl)cc1Cl)N1CCCCC(c2ccc(F)c(F)c2)=N1	5%
COc1ccccc1CCNc1nc(C)cc(N[C@@H](Cc2ccccc2)C(=O)NCCOc2ccccc2)n1.O=C(O)C(F)(F)F	20%
Cc1[nH]c(C)c(-c2ccc(-c3cccc(Cl)c3)nc2)c(=O)c1Cl	15%
Cc1cccc2nc(-c3ccc(-c4ccc(CNCc5cnn(-c6ccccc6)n5)cc4)s3)[nH]c12.O=C(O)C(F)(F)F	16%
CCOc1ccc(C=CC(=O)Nc2ccc3nc(N4CCOCC4)cc(C)c3c2)cc1OC	14%
COc1ccc(Cn2cncc2CN(CCC(C)C)C(=O)c2ccc(Cl)nc2Cl)cc1.O=C(O)C(F)(F)F	19%
O=C(NC1CCCC1)c1cc2c(=O)n3ccccc3nc2[nH]/c1=N/CCc1ccccc1	19%
CC1CCCN(Cc2cc(Cl)cc(Cl)c2O)C1 (stereo not drawn)	22%
COc1ccc(NC(=O)Nc2cccc(-c3cccc(-c4nc5cc(F)ccc5[nH]4)c3)c2)cc1	59%
O=c1cc(NCCCN(Cc2cc3c(Cl)cc(Cl)cc3[nH]2)Cc2cc3c(Cl)cc(Cl)cc3[nH]2)[nH]c2ccccc12	23%
CCN(CC)CCNC(=O)c1ccc(NC(=O)c2cc(-c3ccncc3)nc3ccccc23)cc1	1%
CN1CCN(CC(=O)Nc2cccc(-c3ccc(-c4nc5cc(F)ccc5[nH]4)s3)c2)CC1	71%
Cc1cc(=NN=Cc2ccc(F)cc2)c2cc(F)ccc2[nH]1	6%
COc1ccc2nc(C)cc(Nc3ccc(Oc4ccc(Cl)cc4)c(Cl)c3)c2c1	48%
CCCCc1ccc2[nH]c(NC(=O)OC)nc2c1	26%
COc1ccc(C(=O)NCCCCN2CCC(c3ccc4c(c3OC)CCCC4)CC2)cc1-c1ccc(C(F)(F)F)cc1	67%
COc1ccc2nc(Nc3nc4cnccc4[nH]3)sc2c1	8%
CCOC(=O)c1ccc(N2CCCCC2)c(NC(=O)C(Cl)(Cl)Cl)c1	11%
C[C@@H]1CN(C(c2cccc(O)c2)c2cccc(C(=O)N(C)c3cccc(F)c3)c2)[C@@H](C)CN1C(c1cccc(O)c1)c1cccc(C(=O)N(C)c2cccc(F)c2)c1.Cl (stereo partly drawn)	0%
CC(C)C(=O)n1ncc2c3c(N)nc(N)nc3ccc21	0%
CC(C)COc1ccc(Cl)cc1Cc1ccc(-c2nc3ccc(F)cc3[nH]2)o1	35%
CCN(CC)CCCN(Cc1ccc(-c2ccc(C(F)(F)F)cc2)cc1)C(=O)Cn1c(SCc2cccc(F)c2F)cc(=O)c2ccccc21.O=C(O)C(O)C(O)C(=O)O	45%
Nc1ncc(-c2cc3ccccc3o2)c(N)n1	0%
CCc1cccc(OCC2CCCN(c3ccc(C(=O)NC4CC4)cn3)C2)c1 (stereo not drawn)	0%
Cc1[nH]c(C)c(-c2ccc(-c3ccccc3)nc2)c(=O)c1Br	0%
